Experiment: Single dose pharmacokinetic study in mice (iv 4 mg/Kg, po 20 mg/Kg), plasma concentration post-dosing
Assay type: in vivo, mouse
Details: male, C57BL/6, mouse, plasma, iv, 4 mg/kg, mouse, IV 4 mg/Kg, individual mice M1-M3; read-out: AUC0-last
Protocol: This is advantageous leading to comparatively lower doses or less frequent administration. The procedure followed was: Male C57BL/6 mice were used at 7-9 weeks age with 3 animals per group. Mice were dosed with test compound using single intravenous bolus or oral gavage. […] LC-MS/MS method for the quantitative determination of test compound in corresponding biological matrix was developed. […]
property: AUC(0-t) (ng·h/mL)
// return numeric value only (unit: ng·h/mL, not printed)

{"columns": ["compound", "unit.abbreviation", "result.number"],
 "data": [
  ["CC(C)n1ccc(S(=O)(=O)NC(=O)Nc2c3c(cc4c2CCC4)CCC3)n1 [MCC_007840_002]", "ng·h/mL", 100000]
]}

API: the following record is the query input.
Prompt line: Name the recorded AUC(0-t) for CC(C)(O)c1coc(S(=O)(=O)NC(=O)Nc2c3c(cc4c2CCC4)CCC3)c1 [MCC_000950_016, reference compound] .
Response line: 41900

----------
Test: Single dose pharmacokinetic study in mice (iv 4 mg/Kg, po 20 mg/Kg), plasma concentration post-dosing
Assay type: in vivo, mouse
Details: male, C57BL/6, mouse, plasma, po, 20 mg/kg, mouse, PO 20 mg/Kg, mean of 3 mice; read-out: T1/2, Mean PO (converted)
property: half-life (h)
Give the number; h is assumed, so skip it.

{"columns": ["molecule", "half-life / h"],
 "data": [
  ["CC(C)n1ccc(S(=O)(=O)NC(=O)Nc2c3c(cc4c2CCC4)CCC3)n1", 5.02]
]}

As a next step, examine the molecule that follows.
Prompt line: Report half-life for CC(C)(O)c1coc(S(=O)(=O)NC(=O)Nc2c3c(cc4c2CCC4)CCC3)c1 [MCC_000950_016, reference compound] please.
Response line: 2.39

----------
Molecular target: NLRP3 inflammasome (Homo sapiens)
Sequence (Q96P20 whole entry): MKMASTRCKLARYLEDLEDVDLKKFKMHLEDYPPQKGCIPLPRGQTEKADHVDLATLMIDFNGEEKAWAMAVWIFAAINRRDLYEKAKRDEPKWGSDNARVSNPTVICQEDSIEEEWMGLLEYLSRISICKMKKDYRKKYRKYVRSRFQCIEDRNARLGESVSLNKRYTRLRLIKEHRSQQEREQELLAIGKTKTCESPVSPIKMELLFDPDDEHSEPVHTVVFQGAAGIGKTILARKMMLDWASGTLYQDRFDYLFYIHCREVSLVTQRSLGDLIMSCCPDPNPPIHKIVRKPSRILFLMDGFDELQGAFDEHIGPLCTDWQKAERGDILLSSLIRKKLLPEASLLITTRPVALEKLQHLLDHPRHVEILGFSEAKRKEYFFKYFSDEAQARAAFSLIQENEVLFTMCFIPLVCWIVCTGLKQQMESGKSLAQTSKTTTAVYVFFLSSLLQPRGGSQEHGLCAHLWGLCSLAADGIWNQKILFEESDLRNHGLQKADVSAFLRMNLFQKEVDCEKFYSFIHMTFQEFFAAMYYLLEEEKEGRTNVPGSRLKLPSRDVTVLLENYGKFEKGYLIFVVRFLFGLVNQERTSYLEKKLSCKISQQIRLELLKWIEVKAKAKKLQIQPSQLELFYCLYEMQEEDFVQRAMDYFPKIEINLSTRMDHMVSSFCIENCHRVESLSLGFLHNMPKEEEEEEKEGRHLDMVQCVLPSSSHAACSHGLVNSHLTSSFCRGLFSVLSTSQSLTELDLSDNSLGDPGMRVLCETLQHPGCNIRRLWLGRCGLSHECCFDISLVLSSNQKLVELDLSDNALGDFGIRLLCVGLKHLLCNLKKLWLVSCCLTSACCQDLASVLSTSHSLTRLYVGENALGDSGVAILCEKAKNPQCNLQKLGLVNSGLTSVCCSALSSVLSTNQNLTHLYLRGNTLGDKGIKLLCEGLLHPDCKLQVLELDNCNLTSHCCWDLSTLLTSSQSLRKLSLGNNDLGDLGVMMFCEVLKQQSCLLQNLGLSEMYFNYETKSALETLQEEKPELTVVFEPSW
Experiment: Inhibition of IL-1β release, NLRP3 inflammasome activation assay in HMDM
Assay type: cell-based
Settings: inhibition of IL-1β release, class symbols, read-out: Avg. IL-1β IC50 HMDM
pIC50: −log10 of the molar value.
property: pIC50

Prompt line: Would you kindly share the measured pIC50 for "Nc1ccc(S(=O)(=O)NC(=O)Nc2c3c(cc4c2CCC4)CCC3)cc1" ?
Response line: > 6.00

Prompt line: What value of pIC50 has been recorded for this entry: "COc1cc(NC(=O)NS(=O)(=O)c2cccc(C3(C(F)(F)F)N=N3)c2)c2ncccc2c1"
Response line: > 4.30

----------
Test: Single dose pharmacokinetic study in mice (iv 4 mg/Kg, po 20 mg/Kg), plasma concentration post-dosing
Assay type: in vivo, mouse
Settings: male, C57BL/6, mouse, plasma, iv, 4 mg/kg, mouse, IV 4 mg/Kg, 0.250 h post dosing, individual mice M1-M3; read-out: Plasma concentration, IV Time 0.250 h
Readings of concentration at 0.25 h for the listed molecules
Express your answer in ng/mL, writing the number without its unit.

{"columns": ["molecule", "concentration at 0.25 h, ng/mL"],
 "data": [
  ["CC(C)(O)c1coc(S(=O)(=O)NC(=O)Nc2c3c(cc4c2CCC4)CCC3)c1 [MCC_000950_016, reference compound]", 16000]
]}

Prompt line: Dear colleague, I am looking for the recorded concentration at 0.25 h of the following molecule: CC(C)n1ccc(S(=O)(=O)NC(=O)Nc2c3c(cc4c2CCC4)CCC3)n1 [MCC_007840_002]
Response line: 28100

// data source = patent US10538487B2
